# Tested target: glucagon receptor (UniProt P47871 26-477, limits assumed)
# Sequence (P47871 26-477 limits assumed): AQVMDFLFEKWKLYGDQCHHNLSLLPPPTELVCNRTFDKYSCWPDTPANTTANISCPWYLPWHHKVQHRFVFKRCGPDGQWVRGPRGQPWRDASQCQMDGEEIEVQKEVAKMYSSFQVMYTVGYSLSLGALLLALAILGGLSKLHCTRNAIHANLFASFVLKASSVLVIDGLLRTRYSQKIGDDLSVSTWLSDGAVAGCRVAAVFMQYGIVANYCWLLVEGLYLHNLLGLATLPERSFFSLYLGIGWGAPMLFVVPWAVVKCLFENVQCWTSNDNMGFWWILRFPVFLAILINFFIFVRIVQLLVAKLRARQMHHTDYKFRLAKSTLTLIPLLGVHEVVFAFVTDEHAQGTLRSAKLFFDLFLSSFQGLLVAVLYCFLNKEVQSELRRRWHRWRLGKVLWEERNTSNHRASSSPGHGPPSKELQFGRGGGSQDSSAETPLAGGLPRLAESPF
# Assay procedure: cell-based or functional assay
Bridges are numbered along the chain shown (N, C = ends). Primed or numbered codes have the meaning given here. Where no end group is shown, it is not given here. [ ]: non-standard residue; d: D form. PEG 40 kDa″ = polyethylene glycol of 40 kDa covalently attached to the side chain; Aib = CC(C)(N)C(=O)O
Quick list: EC50 per entry.
Express it in nM; write the number only.

Y[Aib]QGTFTSDYSIYLDEQAAKEFVNWLLAGKGKKNWLKHNITQC-NH2 (lactam 16-20) [mt-207] :: 3.2

Noted for Y[Aib]EGTFTSDYSIYLDEQAAKEFVNWLLAGKGKKNWLKHNITQC-NH2 (lactam 16-20) [mt-206] : its EC50 reads 331

Noted for Y[Aib]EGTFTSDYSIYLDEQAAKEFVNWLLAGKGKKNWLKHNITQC(PEG 40 kDa″)-NH2 (lactam 16-20) [mt-208] : its EC50 reads 448

Noted for Y[Aib]QGTFISDYSIYLDEQAAKEFVNWLLAGGPSSGAPPPSC-NH2 (lactam 16-20) [mt-176] : its EC50 reads 0.141
